- system name: T1, human EphA2 (ephrin receptor A2), on cells (human, UniProt P29317 24-976)
- T1 construct: Used for HEK293 transfectants, A549 and other human tumor cell lines
- T1 sequence (P29317 24-976 limits assumed): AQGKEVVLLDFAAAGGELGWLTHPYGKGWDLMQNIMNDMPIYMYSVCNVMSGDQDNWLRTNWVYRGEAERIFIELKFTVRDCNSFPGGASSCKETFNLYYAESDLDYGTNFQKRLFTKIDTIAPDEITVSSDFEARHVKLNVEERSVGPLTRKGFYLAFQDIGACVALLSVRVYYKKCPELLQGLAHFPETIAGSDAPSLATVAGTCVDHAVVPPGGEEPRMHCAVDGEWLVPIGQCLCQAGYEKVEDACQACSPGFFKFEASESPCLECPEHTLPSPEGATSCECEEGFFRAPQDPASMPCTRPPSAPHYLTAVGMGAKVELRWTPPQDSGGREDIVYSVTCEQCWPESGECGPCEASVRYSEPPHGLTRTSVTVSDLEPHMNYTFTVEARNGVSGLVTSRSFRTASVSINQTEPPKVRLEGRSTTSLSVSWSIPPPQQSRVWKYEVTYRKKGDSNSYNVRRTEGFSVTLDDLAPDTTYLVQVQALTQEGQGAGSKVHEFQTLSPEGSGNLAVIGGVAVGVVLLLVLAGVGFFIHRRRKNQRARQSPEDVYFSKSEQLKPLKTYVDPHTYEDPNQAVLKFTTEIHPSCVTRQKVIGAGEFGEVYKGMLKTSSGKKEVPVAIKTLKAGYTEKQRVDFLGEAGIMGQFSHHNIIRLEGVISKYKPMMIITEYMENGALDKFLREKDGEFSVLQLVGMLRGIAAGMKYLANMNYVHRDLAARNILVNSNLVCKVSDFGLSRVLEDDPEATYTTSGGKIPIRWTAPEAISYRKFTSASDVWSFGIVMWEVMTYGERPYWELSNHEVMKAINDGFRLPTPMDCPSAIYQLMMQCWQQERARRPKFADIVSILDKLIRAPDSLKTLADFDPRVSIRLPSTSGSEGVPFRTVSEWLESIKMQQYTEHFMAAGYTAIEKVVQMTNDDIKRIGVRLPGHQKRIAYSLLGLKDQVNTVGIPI
- test name: flow cytometry on A549 cells
pEC50: −log10 of the molar value.
Reported pEC50 by item:
value type: pEC50

INSERT INTO results (binder, value_type, observed_result) VALUES
  ('AB-009815 (antibody, mouse IgG2a, V domains shown) VH: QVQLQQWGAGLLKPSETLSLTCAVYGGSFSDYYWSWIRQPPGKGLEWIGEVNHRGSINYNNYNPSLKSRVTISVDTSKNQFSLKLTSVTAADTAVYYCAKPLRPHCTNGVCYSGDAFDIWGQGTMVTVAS VL: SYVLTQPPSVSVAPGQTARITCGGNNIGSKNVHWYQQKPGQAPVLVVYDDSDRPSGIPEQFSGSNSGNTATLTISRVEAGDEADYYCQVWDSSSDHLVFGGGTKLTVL', 'pEC50', 8.26),
  ('AB-009813 (antibody, mouse IgG2a, V domains shown) VH: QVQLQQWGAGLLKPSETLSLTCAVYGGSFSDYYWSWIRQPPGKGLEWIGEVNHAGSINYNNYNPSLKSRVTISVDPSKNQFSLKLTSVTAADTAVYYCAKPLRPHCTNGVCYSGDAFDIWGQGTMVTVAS VL: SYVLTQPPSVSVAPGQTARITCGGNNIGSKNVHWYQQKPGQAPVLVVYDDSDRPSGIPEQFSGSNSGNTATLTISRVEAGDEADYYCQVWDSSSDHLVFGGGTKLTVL', 'pEC50', 8.17),
  ('AB-009814 (antibody, mouse IgG2a, V domains shown) VH: QVQLQQWGAGLLKPSETLSLTCAVYGGSFSDYYWSWIRQPPGKGLEWIGEVNHRGSINYNPSLKSRVTISVDPSKNQFSLKLTSVTAADTAVYYCAKPLRPHCTNGVCYSGDAFDIWGQGTMVTVAS VL: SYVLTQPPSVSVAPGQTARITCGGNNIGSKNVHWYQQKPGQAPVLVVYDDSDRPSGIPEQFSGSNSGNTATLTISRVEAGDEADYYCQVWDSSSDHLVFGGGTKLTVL', 'pEC50', 7.94),
  ('AB-009812 (antibody, mouse IgG2a, V domains shown) VH: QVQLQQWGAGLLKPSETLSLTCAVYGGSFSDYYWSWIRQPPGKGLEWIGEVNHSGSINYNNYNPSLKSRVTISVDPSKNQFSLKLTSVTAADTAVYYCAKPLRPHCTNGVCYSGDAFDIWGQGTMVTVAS VL: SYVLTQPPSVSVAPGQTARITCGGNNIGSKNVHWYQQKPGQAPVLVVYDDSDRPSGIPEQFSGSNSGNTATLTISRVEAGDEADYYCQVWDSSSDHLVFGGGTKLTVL', 'pEC50', 8.02);

Numbers sourced from patent US20250051464A1.
